Origin of the recorded values: paper PMC8327296

Target: recombinant A3R (human) (Homo sapiens)
Sequence (P0DMS8 whole entry): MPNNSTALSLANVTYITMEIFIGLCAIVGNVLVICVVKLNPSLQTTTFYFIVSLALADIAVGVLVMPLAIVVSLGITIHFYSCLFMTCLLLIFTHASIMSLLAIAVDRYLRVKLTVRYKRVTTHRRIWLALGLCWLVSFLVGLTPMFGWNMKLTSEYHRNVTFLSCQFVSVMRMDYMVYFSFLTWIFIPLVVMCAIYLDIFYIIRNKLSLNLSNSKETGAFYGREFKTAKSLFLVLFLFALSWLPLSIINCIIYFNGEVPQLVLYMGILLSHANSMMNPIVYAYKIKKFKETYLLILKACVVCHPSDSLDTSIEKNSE
Assay: Competition radioligand binding, human A3R
pKi: −log10 of the molar value.

Compound	pKi
COc1cccc(-c2nc(SCc3ncc[nH]3)nc(N)c2C#N)c1 [21d]	6.15
N#Cc1c(N)nc(SCc2ncc[nH]2)nc1-c1cccc(O)c1 [21f]	6.95
COc1ccc(-c2c(C#N)c(N)nc(SCc3cccc(C)n3)c2C#N)cc1 [22a]	6.15
Cc1cccc(CSc2nc(N)c(C#N)c(-c3cccc(O)c3)c2C#N)n1 [22e]	7.13
CC(=O)Nc1ccc(-c2c(C#N)c(N)nc(SCc3cccc(C)n3)c2C#N)cc1 [22g]	7.66
Cc1cccc(CSc2nc(N)c(C#N)c(-c3cccc(O)c3)n2)n1 [21e]	7.10
